Each recorded value in this set is attributed to patent US20260297085A1.

Molecular target: human JAK1 kinase domain (JH1) (Homo sapiens, UniProt P23458)
Construct: recombinantly generated catalytic kinase (also known as JH1) domain of human JAK1, JAK2, JAK3 and TYK2
Sequence (P23458 875-1153 limits assumed): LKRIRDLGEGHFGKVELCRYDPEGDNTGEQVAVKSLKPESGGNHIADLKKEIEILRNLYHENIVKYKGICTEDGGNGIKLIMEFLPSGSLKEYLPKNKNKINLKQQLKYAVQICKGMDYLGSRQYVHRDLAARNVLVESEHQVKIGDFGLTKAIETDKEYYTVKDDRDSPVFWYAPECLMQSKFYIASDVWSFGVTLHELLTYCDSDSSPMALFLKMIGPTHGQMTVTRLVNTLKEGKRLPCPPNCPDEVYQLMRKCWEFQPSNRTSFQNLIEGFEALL
Experiment: JH1 biochemical assay for JAK1 (ADP-Glo kinase assay, recombinant JH1 catalytic domain, JAK3-342 peptide, 35 μM ATP)
Conditions: JH1 kinase domain, ADP-Glo
Listed next: entries and their corresponding IC50.

>  <Molecule>
C[C@@H]1CN(c2ccnn3cc(-c4cnn5c4CCCC5)cc23)C(=O)[C@]1(C#N)C1CC1

>  <IC50>
100 to 1000 nM

$$$$
>  <Molecule>
C[C@@H]1CN(c2nc(-c3cnn(C4CC4(F)F)c3)cn3nccc23)C(=O)[C@]1(C#N)C1CC1 (some centres unmarked)

>  <IC50>
< 100 nM

$$$$
>  <Molecule>
C[C@@H]1CN(c2ccnn3cc(-c4cncc(Cl)c4)cc23)C(=O)[C@]1(C#N)C1CC1

>  <IC50>
5000 to 10000 nM

$$$$
>  <Molecule>
C[C@@H]1CN(c2ccnn3cc(-c4ccc5cnn(C)c5c4)cc23)C(=O)[C@]1(C#N)C1CC1

>  <IC50>
< 100 nM

$$$$
>  <Molecule>
Cn1cc(-c2cc3c(N4CC[C@](C#N)(C5CC5)C4=O)ccnn3c2)cn1

>  <IC50>
> 10000 nM

$$$$

====

// values below are reported IC50
Molecular target: human JAK2 kinase domain (JH1) (Homo sapiens, UniProt O60674)
Construct: recombinantly generated catalytic kinase (also known as JH1) domain of human JAK1, JAK2, JAK3 and TYK2
Sequence (O60674 849-1124 limits assumed): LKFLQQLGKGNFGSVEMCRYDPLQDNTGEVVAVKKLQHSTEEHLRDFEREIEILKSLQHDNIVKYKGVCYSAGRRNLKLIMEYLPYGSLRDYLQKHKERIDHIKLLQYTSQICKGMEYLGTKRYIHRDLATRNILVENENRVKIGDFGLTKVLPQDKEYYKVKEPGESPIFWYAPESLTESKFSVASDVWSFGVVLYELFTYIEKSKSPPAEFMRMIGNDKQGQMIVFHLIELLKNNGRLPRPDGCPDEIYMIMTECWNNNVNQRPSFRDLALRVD
Assay: JH1 biochemical assay for JAK2 (ADP-Glo kinase assay, recombinant JH1 catalytic domain, JAK3-974 peptide, 15 μM ATP)
Conditions: JAK2 JH1, ADP-Glo
Structures can show the parent of a compound that is named as a salt.
Measured quantity: IC50

>  <Compound>
C[C@@H]1CN(c2nc(-c3cnn(CC4COC4)c3)cn3ncc(F)c23)C(=O)[C@]1(C#N)C1CC1 [Example 304]

>  <Measured quantity>
IC50

>  <Measured value>
< 0.1 µM

$$$$
>  <Compound>
CC(=O)Nc1cncc(-c2cn3nccc3c(N3C[C@@H](C)[C@@](C#N)(C4CC4)C3=O)n2)c1 [Example 249, trifluoroacetate]

>  <Measured quantity>
IC50

>  <Measured value>
> 10 µM

$$$$
>  <Compound>
C[C@@H]1CN(c2nc(-c3ccc(F)nc3)cn3nccc23)C(=O)[C@]1(C#N)C1CC1 [Example 243, trifluoroacetate]

>  <Measured quantity>
IC50

>  <Measured value>
> 10 µM

$$$$
>  <Compound>
C[C@@H]1CN(c2nc(-c3cnn(C4CCCCC4)c3)cn3ncc(F)c23)C(=O)[C@]1(C#N)C1CC1 [Example 219]

>  <Measured quantity>
IC50

>  <Measured value>
< 0.1 µM

$$$$
>  <Compound>
C[C@@H]1CN(c2nc(-c3ccnc(F)c3)cn3nccc23)C(=O)[C@]1(C#N)C1CC1 [Example 237, trifluoroacetate]

>  <Measured quantity>
IC50

>  <Measured value>
0.1 to 1 µM

$$$$
>  <Compound>
C[C@@H]1CN(c2ccnc3cc(-c4cnn(C)c4)nn23)C(=O)[C@]1(C#N)C1CC1 [Example 273]

>  <Measured quantity>
IC50

>  <Measured value>
> 10 µM

$$$$
>  <Compound>
C[C@@H]1CN(c2nc(-c3cnn(C4CC4)c3)cc3ncsc23)C(=O)[C@]1(C#N)C1CC1 [Example 357]

>  <Measured quantity>
IC50

>  <Measured value>
< 0.1 µM

$$$$
>  <Compound>
C[C@@H]1CN(c2nc(-c3cnn(-c4ccccn4)c3)cn3nccc23)C(=O)[C@]1(C#N)C1CC1 [Example 296]

>  <Measured quantity>
IC50

>  <Measured value>
0.1 to 1 µM

$$$$
>  <Compound>
C[C@@H]1CN(c2nc(-c3ccc4nccn4c3)cn3nccc23)C(=O)[C@]1(C#N)C1CC1 [Example 263, trifluoroacetate]

>  <Measured quantity>
IC50

>  <Measured value>
< 0.1 µM

$$$$
>  <Compound>
C[C@@H]1CN(c2nc(-c3cnn(C4CC(C#N)C4)c3)cc3ncsc23)C(=O)[C@]1(C#N)C1CC1 (stereo partly shown) [Example 356]

>  <Measured quantity>
IC50

>  <Measured value>
< 0.1 µM

$$$$
